Hello, the source for this data is a melting point compilation (Tetko et al.; mined from patent text by program, amines drawn as free bases though some values may be those of a salt), in case you need it.

Would you mind telling me the reported melting point of each entry?

What value of measured melting point is listed for `COc1cc(Cc2cnc(N)nc2N)cc(-c2ccc(CO)cc2)c1OC` ?
86 °C

Next record, please: `NCC(O)(CCc1ccccc1)CCc1ccccc1`
104 to 106 °C

Next record, please: `CCCc1c(OCCCCCCCC(=O)NCCCCc2cccnc2)ccc(C(C)=O)c1O`
48 to 51 °C

Next record, please: `Cc1ncc(CSC(=O)c2ccccc2)c(CO)c1O`
174 to 177 °C

Next record, please: `CCOC(=O)c1csc2cc(Oc3cc(Cl)nc(N)n3)ccc12`
178 to 179 °C

====

RESULT_TYPE: melting point

What value of measured melting point is listed for `COC(=O)c1c(-c2ccccc2)nn2c1-c1ccccc1CC2` ?
112 to 113 °C

Next record, please: Cc1cccc2c1N(Cc1ccccn1)C(=O)C(NC(=O)Nc1cccc(-c3nnn[nH]3)c1)N=C2c1ccccc1F (stereo not drawn)
174 to 182 °C

Next record, please: `COc1cc(Nc2ncc(-c3ccccc3N(C)C(=O)CN3CCOCC3)o2)ccc1-c1cnco1`
179 to 181 °C

====

RESULT_TYPE: melting point

What value of measured melting point is listed for Cc1cc(C)cc(C(=O)N2CCN(C(=O)CBr)C(c3ccc(Cl)c(Cl)c3)C2)c1 (racemic) ?
68 to 71 °C

Next record, please: `Clc1ccc(Br)c2nc(SCc3ccccc3)nn12`
122 to 124 °C

Next record, please: `Cc1cc(C(=O)Nc2cc(Oc3ccc4nc(NC(=O)C5CC5)cn4n3)ccc2Cl)n(C)n1`
255 °C

Next record, please: `CNC(=O)N(Cc1ccc(C(C)(C)C)cc1)NC(=O)OC(C)(C)C`
124 to 129 °C

Next record, please: `N#CC(C#N)C(c1cccc2ccccc12)c1cccc2ccccc12`
179 to 181 °C

Next record, please: `COc1ccc(Cc2ccc(-c3cnn4c(O)ncnc34)cc2)cc1`
296 to 298 °C

Next record, please: `O=C(O)c1ccc2c(=O)n3c(nc2c1)C(=Cc1ccccc1)CC3`
382 to 384 °C

Next record, please: CN1C(=O)C2(COc3cc4c(cc32)OCCO4)c2c(NC(=O)NC3CCCC3)cccc21 (stereo not drawn)
133 to 135 °C

====

RESULT_TYPE: melting point

What value of measured melting point is listed for `BrCCCCCCCc1ccc(OCc2ccccc2)cc1` ?
32 to 34 °C

Next record, please: `Cn1c(C(=O)N=[N+]=[N-])c(-c2ccccc2)c2cc([N+](=O)[O-])ccc21`
262 to 264 °C

Next record, please: CCOc1ccc(C2=NN(c3ccc(S(=O)(=O)O)cc3)C(=O)[C@H]3CC=CC[C@@H]23)cc1OCC (relative stereo)
65 to 69 °C

====

RESULT_TYPE: melting point

What value of measured melting point is listed for `CCOC(=O)c1scc2c1ccc1cn[nH]c12` ?
124 to 125 °C

Next record, please: `O=C(CCc1ccccc1)c1cccnc1Nc1ccc(F)cc1`
100 to 102 °C

Next record, please: `COc1ccc(-c2ccc(C#N)cc2)nc1`
93 to 95 °C

Next record, please: CCCCCCOC(=O)C(CSC(=O)C(C)c1ccc(CC(C)C)cc1)NC(C)=O (centres undefined)
40 to 45 °C

Next record, please: `N#Cc1ccccc1Cn1cc(-c2ccnc(N)c2)n(-c2ccc(F)cc2)c1=O`
182 to 183 °C

Next record, please: `N#CC(N)=C(N)Sc1ccc(Cl)cc1`
107 to 108 °C

Next record, please: CCCCC(=O)N(Cc1ccc2c(c1)CCc1ccccc1N2CC#N)C(C(=O)O)C(C)C (centres undefined)
82 °C

Next record, please: `O=C(CCC(=O)N1CCC(c2ccc(Cl)cc2)CC1)c1ccc2c(c1)CCNCC2`
148 to 149 °C

Next record, please: `CCOC(=O)c1c(-c2ccccc2)n(C)c(-c2ccccc2)cc1=O`
177 to 179 °C

====

Would you mind telling me the reported melting point of each entry?

What value of measured melting point is listed for `COC(=O)c1cc(NC(C)=O)ccc1O` ?
147 to 148 °C

Next record, please: `CC(C)(C)c1cc(CCC(=O)NNC(=O)C=Cc2ccc(Cl)cc2)cc(C(C)(C)C)c1O`
276 to 277 °C

Next record, please: `CON(C)C(=O)Cc1cc(Oc2ccc(C(F)(F)F)cc2Cl)ccc1[N+](=O)[O-]`
134 to 135 °C

====

Would you mind telling me the reported melting point of each entry?

What value of measured melting point is listed for `C=CC(=O)NC(=O)CC(C)=O` ?
128 to 130 °C

Next record, please: O=C1CCC(c2cc(F)c(Br)cc2F)C1 (configuration not stated)
63 to 65 °C

Next record, please: OC1CSC(Oc2cccc(-c3cc(Cl)ccn3)c2)C(O)C1O (configuration not stated)
97 to 105 °C

Next record, please: `COc1ccc(-c2cn3ccccc3n2)cc1OC`
96 °C

Next record, please: CC1CC(=O)N(c2ccccn2)N=C1c1ccc(OC2CCN(C(=O)OC(C)(C)C)CC2)cc1 (configuration not stated)
164 to 166 °C

Next record, please: `COC(=O)c1cc2c(cn1)[nH]c1ccc(Oc3ccc([N+](=O)[O-])cn3)cc12`
150 to 155 °C

Next record, please: `O=C1c2ccccc2C(=O)c2c(O)c3c(c(O)c21)CCCC3`
194 to 196 °C

====

RESULT_TYPE: melting point

What value of measured melting point is listed for `COc1cc(OC(C)(C)C(=O)O)c(/C=C/C(=O)c2ccc(S(N)(=O)=O)cc2)cc1-c1cccs1` ?
164 to 165 °C

Next record, please: Cc1nn(-c2ccc(Cl)c3c2CC(C)O3)c(=O)n1C(F)F (centres undefined)
78 to 79 °C

Next record, please: `O=Cc1cccn2cc(C(F)(F)F)nc12`
98 to 100 °C

Next record, please: `CS(=O)(=O)n1cc(F)c(=O)[nH]c1=O`
223 to 224 °C

====

RESULT_TYPE: melting point

What value of measured melting point is listed for `O=C1c2cc(Cl)ccc2-n2cnc(Cl)c2[C@@H]2CCCN12` ?
209 to 210 °C

Next record, please: `CN(O)C(=O)Nc1cccc(NC(=O)N(C)O)c1`
146 to 147 °C

Next record, please: `CC(C)(CO)NC(=S)NC(=O)c1ccccc1`
116 to 118 °C

Next record, please: O=C1CCC(N2C(=O)c3cccc(CNC(=O)Nc4ccc5c(c4)OCO5)c3C2=O)C(=O)N1 (stereo not drawn)
216 to 218 °C

Next record, please: `COCc1c(C(=O)c2ccccc2)ncc2[nH]c3cccc(Cc4ccccc4Cl)c3c12`
147 to 148 °C

Next record, please: `CCNc1ncc2cc(-c3c(Cl)cccc3Cl)c(=O)n(C)c2n1`
180 to 182 °C

Next record, please: `O=C1NC(=O)c2c(Sc3ccc(Cl)cc3)c(Sc3ccc(Cl)cc3)c(Sc3ccc(Cl)cc3)c(Br)c21`
164 to 169 °C

Next record, please: `CN(C)C(=O)Cn1c(-c2ccc(Br)cc2)nc2cccnc21`
224 to 225 °C

Next record, please: `Cc1ccc(S(=O)(=O)Nc2cc(CC(C)C)c([N+](=O)[O-])cc2Br)cc1`
170 °C

Next record, please: `O[C@@H](CNCc1ccccc1)C1CCCCC1`
56 to 58 °C

Next record, please: `COc1cccc(COc2cc3c(cc2-c2cc(C=CC(=O)O)ccc2OC)C(C)(C)CCC3(C)C)c1`
76 to 78 °C

Next record, please: `CCCN1C(=O)c2cscc2Nc2ccccc21`
166 to 167 °C

Next record, please: `O=C1CCC(c2ccccc2F)=NN1`
119 to 121 °C

Next record, please: CSC1NC(=O)N(c2ccc(C)cc2)C(=O)N1N=C(C)C (stereo not drawn)
170 to 173 °C

Next record, please: CC1(CNC(=O)OCc2ccccc2)Cn2cc([N+](=O)[O-])nc2O1 (stereo not drawn)
171 to 172 °C

Next record, please: `CC(C)[C@H](NC(=O)OCc1ccccc1)C(=O)N[C@@H](Cc1ccccc1)[C@@H](O)[C@@H](O)[C@H](Cc1ccccc1)NC(=O)OC(C)(C)C`
178 to 182 °C

Next record, please: `C#Cc1ccc2c(c1)N(c1ncnc3cc(OC)c(OC)cc13)CC2`
241 to 243 °C

Next record, please: `CN(CCCCCCNC(=O)NCCCOc1cccc(CN2CCCCC2)c1)CCN(Cc1ccc(F)cc1)c1ccccn1`
65 to 69 °C

Next record, please: `OCc1cn(-c2ccc(C(F)(F)F)cn2)nc1C1CCCCC1`
138 to 139 °C

Next record, please: `Fc1ccc(Nc2ccnc(Cl)n2)cc1`
172 to 174 °C

Next record, please: `COc1ccc(-c2cc(C(F)(F)F)nn2-c2ccc(S(N)(=O)=O)cc2)cc1I`
220 to 224 °C

Next record, please: `Cn1ccc(C=C[N+](=O)[O-])c1`
90 to 92 °C

Next record, please: O=C(c1ccc2c(c1)[C@@H](O)[C@H](Br)CCO2)c1ccccc1F (relative stereo)
219 to 221 °C

Next record, please: `COc1ccc(Nc2ccc(Nc3ncnc4cc(-c5ccccc5[N+](=O)[O-])sc34)cc2)cc1`
228 to 237 °C

Next record, please: COc1cc(CC2SC(N3CCCC3)=NC2=O)cc(-c2ccc(O)c(C3(C)CCCCC3)c2)c1 (stereo not drawn)
88 to 91 °C

Next record, please: `CCCCCCCCCCCCCCSCc1ccc(C(C)=O)o1`
55 to 57 °C

Next record, please: `NS(=O)(=O)c1ccc(NC(=O)CCl)c(Cl)c1`
162 to 164 °C

Next record, please: Cc1oc(-c2ccc3ccccc3c2)nc1CCc1ccc(CCCC2OC(=O)NC2=O)cc1 (stereo not drawn)
168 to 169 °C

Next record, please: `CC(=O)Oc1ccc(-c2c(CBr)c3ccc(F)cc3oc2=O)c(OC(C)=O)c1`
230 to 231 °C

Next record, please: `CCOC(=O)C1(C(=O)Nc2cc(Cl)c(Cl)cc2C)CC1`
105 to 107 °C

Next record, please: `CC1(C)CNC(=S)NC1`
225 to 228 °C

Next record, please: `CN(C(=O)COc1nnc(Cl)s1)c1ccccc1`
101 °C

Next record, please: `O=C(O)c1cccc(-n2c(-c3ccccc3)cc3c2CCCC3)c1`
191 to 193 °C
